system: RXF 393 renal; assay: NCI-60 one-dose screen, 48 h; settings: 10 µM unless noted
The panel holds about 83,000 compounds, 20% with a hit somewhere; the sample as a whole holds those more often. Activity calls are given as the source filed them. Rule for the calls: active = growth percent below 10; inactive = the rest.
The categories you may choose from are YES (active), NO (inactive)

### Prompt Check the results log: what was the call for `Cc1cccc2c(=O)c3c(sc12)c(NCCCNCCO)nc1ccccc13` ?
### Response NO

### Prompt Input `O=C(Nc1ccc(Cl)cc1F)c1cc(F)ccc1O`
### Response YES

### Prompt Another: `C=C1C(=O)O[C@H]2[C@H]1CC/C(COC(=O)/C=C\C(=O)O)=C\CC[C@@]1(C)O[C@@H]21`
### Response NO

### Prompt Similarly, `Cc1ccc(C)c(-c2csc(Nc3ccc(C)c(C)c3)n2)c1` ?
### Response NO

### Prompt Now this one: `Cc1ccc(OCCCCCCNCCO)c(C)c1`
### Response YES

### Prompt Would you mind doing `CCOc1ccc2nc(C)cc(Nc3ccc(Br)cc3)c2c1` as well?
### Response NO

### Prompt Note, next up: `COC(=O)/C(CCC=C(C)C)=C1\[C@@H](OC(C)=O)C[C@@]2(C)[C@H]1C[C@@H](O)[C@H]1[C@@]3(C)CC[C@H](NCc4ccccc4)[C@@H](C)[C@@H]3CC[C@@]12C`
### Response NO

### Prompt Next up: `COC(=O)[C@@H]1CCCN1C(=O)[C@H]1CCCN1C(=O)[C@@H](Cc1c[nH]c2ccccc12)NC(=S)Nc1cc(C(F)(F)F)cc(C(F)(F)F)c1`
### Response NO

### Prompt And then `CCN(CC)CCCNc1ccnc2cc3ccccc3cc12` , what is it?
### Response NO

### Prompt Next compound: `CNCCNc1nc2ccccc2c2c(=O)c3cc(F)ccc3sc12`
### Response NO

### Prompt Ok, now `COc1cc(-c2c3c(cn2S(=O)(=O)c2ccccc2)-c2nc(N)sc2CC3)cc(OC)c1OC`
### Response YES

### Prompt One more compound: OC(CNC1CCCCC1)Cn1c2ccc(I)cc2c2cc(I)ccc21 (stereo not drawn)
### Response NO

### Prompt Now the compound COC(=O)[C@H](NC(=O)C1(C)CCC[C@]2(C)[C@H]3C[C@H]4C(C(C)C)=C[C@]3(CC[C@@H]12)[C@@H]1C(=O)CCC(=O)[C@@H]14)C(C)C (stereo partly drawn)
### Response NO

### Prompt Cool, now `CC[C@]1(O)C[C@@H]2CN(CCc3c([nH]c4ccccc34)[C@@](C(=O)OC)(c3cc4c(cc3OC)N(C)[C@H]3[C@@](O)(C(=O)OC)[C@H](OC(=O)CCCBr)[C@]5(CC)C=CCN6CC[C@]43[C@@H]65)C2)C1`
### Response NO

### Prompt Entry `O=C1C(Cl)=C(NCc2ccco2)C(=O)c2ccccc21` please
### Response NO

### Prompt What do you have for C=CCN1C(=O)/C(=c2\sc3n(c2=O)NC2C(N=3)N(CC)C(=O)N2CC)c2ccccc21 (stereo not drawn) ?
### Response NO

### Prompt Moving on to the next compound: `CC1=C(C(=O)OCC2CCN(C(=O)OC(C)(C)C)CC2)[C@H](c2cccc(C#N)c2)C2=C(CC(C)(C)CC2=O)N1`
### Response NO

### Prompt Entry to check: `COc1cc2nc(NC3CCCC3)nc(NC3CCN(C(C)C)CC3)c2cc1OC`
### Response NO
